System: EKVX NSCLC
protocol.details: NCI tumour cell line growth inhibition, 48 h
endpoint.name: TGI

Find the measured TGI of `COc1ccc2c(c1)[n+]([O-])c(C(N)=O)c(N)[n+]2[O-]` and report it.
> 100 µM

Find the measured TGI of O=c1[nH]c2cc(Cl)ccc2nc1/C(=N\Nc1ccccc1)C(O)c1ccc(Cl)c(Cl)c1 (stereo not drawn) and report it.
> 100 µM

Find the measured TGI of `O=c1c2cccnc2ncn1CCN1CCCCC1` and report it.
> 100 µM

---

System: TK-10 renal
protocol.details: NCI tumour cell line growth inhibition, 48 h
Where a SMILES comes first, the peptide text is derived from it. The star is where a group is joined. OSu = O=C1CCC(=O)N1O*
For each of the compounds below, state its TGI.

Find the measured TGI of `CCOC(=O)c1csc(NC(=O)CN2CCCC2)n1` and report it.
> 100 µM

Find the measured TGI of `Cc1nnc2ccnn2c1C` and report it.
> 100 µM

Find the measured TGI of CON(C)C(=O)C(C)N(Cc1ccccc1)Cc1ccccc1 (configuration not stated) and report it.
> 100 µM

Find the measured TGI of `COCCn1cc(-c2nc(-c3cc4cccnc4[nH]3)cs2)c2cc(OC)ccc21` and report it.
10.7 µM

Find the measured TGI of `O=S(=O)(O)c1cc(N=Nc2c(O)ccc3ccccc23)cc2c(S(=O)(=O)O)cccc12` and report it.
> 100 µM

Find the measured TGI of `C=C1C(=O)O[C@H]2[C@H]1CC/C(CNC(=O)c1cc3ccccc3[nH]1)=C\CC[C@@]1(C)O[C@@H]21` and report it.
3.23 µM

Find the measured TGI of `O=c1[nH]c(=O)c2c3n(cc2[nH]1)CCCCC3` and report it.
> 100 µM

Find the measured TGI of `Cc1ccc(-c2nc(N3CCNCC3)c3oc(-c4ccc(C)cc4)nc3n2)cc1` and report it.
14 µM

Find the measured TGI of `CCCCCCCCCCCCNC(=S)OC` and report it.
34.5 µM

Find the measured TGI of CON(C)C(=O)C(Cc1ccccc1)NC(=O)OCc1ccccc1 (configuration not stated) and report it.
> 100 µM

Find the measured TGI of Cc1nn(C(=O)Cc2ccccc2)c2c1C(c1ccccc1)SC(N)=N2 (configuration not stated) and report it.
> 100 µM

Find the measured TGI of NCCCCC(NC(=O)C(N)Cc1ccc(O)cc1)C(=O)NC(CCCCN)C(=O)NC(CCCCN)C(=O)ON1C(=O)CCC1=O (configuration not stated) (H-YKKK-OSu; configuration not given here) and report it.
> 100 µM

---

Tested on: HL-60(TB) leukemia
protocol.details: NCI tumour cell line growth inhibition, 48 h
For each of the compounds below, state its TGI.

Find the measured TGI of C[C@@]1(O)CC[C@]2(C)C3CCCC3[C@H]12 (some centres undefined) and report it.
> 100 µM

Find the measured TGI of CN(C)C=Nc1nc(=O)n(C2CCC(CO)O2)cc1F (centres undefined) and report it.
> 100 µM

Find the measured TGI of `O=C1NC(=NCc2ccccc2)S/C1=C\c1ccc2ncccc2c1` and report it.
> 25 µM

Find the measured TGI of `O=c1c(F)cn(Cc2c(Cl)cccc2Cl)c(=O)n1Cc1c(Cl)cccc1Cl` and report it.
> 31.6 µM
